The values you see were collected from the supplement of paper PMC10567573.

B1: WSB1 (parent)
chain: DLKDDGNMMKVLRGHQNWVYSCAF

Variants of: B1
Experiment: protein stability index of a GFP-peptide fusion (GPS, HEK-293T) (PSI 1-6); higher = more stable;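 also: lentivirally expressed fusions sorted by FACS into six bins by GFP to DsRed ratio, PSI derived from sequencing read proportions per bin multiplied by bin number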
Conditions: c terminus: a fixed tail appended
Kindly return yes (1) if reported protein stability index is no lower than 2; return no (0) if it is lower.

[[record]]
variantdescriptor = "L12W"
classification = "yes (1)"

[[record]]
variantdescriptor = "R13Y"
classification = "yes (1)"

[[record]]
variantdescriptor = "N17F"
classification = "yes (1)"

[[record]]
variantdescriptor = "D5M"
classification = "yes (1)"

[[record]]
variantdescriptor = "M9S"
classification = "no (0)"

[[record]]
variantdescriptor = "W18C"
classification = "yes (1)"

[[record]]
variantdescriptor = "M8K"
classification = "yes (1)"

[[record]]
variantdescriptor = "W18Q"
classification = "yes (1)"

[[record]]
variantdescriptor = "K10V"
classification = "yes (1)"

[[record]]
variantdescriptor = "Y20P"
classification = "no (0)"

[[record]]
variantdescriptor = "V19K"
classification = "no (0)"

[[record]]
variantdescriptor = "D4S"
classification = "yes (1)"

[[record]]
variantdescriptor = "L2S"
classification = "no (0)"

[[record]]
variantdescriptor = "F24V"
classification = "yes (1)"

[[record]]
variantdescriptor = "D5T"
classification = "yes (1)"

[[record]]
variantdescriptor = "D1Y"
classification = "no (0)"

[[record]]
variantdescriptor = "L12Q"
classification = "no (0)"

[[record]]
variantdescriptor = "V19L"
classification = "yes (1)"

[[record]]
variantdescriptor = "V19Y"
classification = "yes (1)"

[[record]]
variantdescriptor = "K3F"
classification = "yes (1)"

[[record]]
variantdescriptor = "Q16A"
classification = "yes (1)"

[[record]]
variantdescriptor = "C22H"
classification = "no (0)"

[[record]]
variantdescriptor = "G6E"
classification = "yes (1)"

[[record]]
variantdescriptor = "A23S"
classification = "yes (1)"

[[record]]
variantdescriptor = "M9N"
classification = "no (0)"

[[record]]
variantdescriptor = "N7C"
classification = "no (0)"

[[record]]
variantdescriptor = "A23C"
classification = "yes (1)"

[[record]]
variantdescriptor = "L12E"
classification = "yes (1)"

[[record]]
variantdescriptor = "K10C"
classification = "yes (1)"

[[record]]
variantdescriptor = "H15W"
classification = "no (0)"

[[record]]
variantdescriptor = "V11Q"
classification = "yes (1)"

[[record]]
variantdescriptor = "K3D"
classification = "yes (1)"

[[record]]
variantdescriptor = "L12F"
classification = "no (0)"

[[record]]
variantdescriptor = "V19N"
classification = "no (0)"

[[record]]
variantdescriptor = "V19D"
classification = "yes (1)"

[[record]]
variantdescriptor = "D5P"
classification = "yes (1)"

[[record]]
variantdescriptor = "D4Q"
classification = "yes (1)"

[[record]]
variantdescriptor = "K3S"
classification = "no (0)"

[[record]]
variantdescriptor = "K3C"
classification = "yes (1)"

[[record]]
variantdescriptor = "D1R"
classification = "no (0)"

[[record]]
variantdescriptor = "V19R"
classification = "yes (1)"

[[record]]
variantdescriptor = "H15K"
classification = "yes (1)"

[[record]]
variantdescriptor = "K10T"
classification = "no (0)"

[[record]]
variantdescriptor = "L2A"
classification = "no (0)"

[[record]]
variantdescriptor = "C22Q"
classification = "yes (1)"

[[record]]
variantdescriptor = "H15Q"
classification = "no (0)"

[[record]]
variantdescriptor = "W18N"
classification = "yes (1)"

[[record]]
variantdescriptor = "W18M"
classification = "yes (1)"

[[record]]
variantdescriptor = "D5R"
classification = "yes (1)"

[[record]]
variantdescriptor = "G14Q"
classification = "yes (1)"

[[record]]
variantdescriptor = "Y20W"
classification = "yes (1)"

[[record]]
variantdescriptor = "K3Y"
classification = "no (0)"

[[record]]
variantdescriptor = "H15F"
classification = "yes (1)"

[[record]]
variantdescriptor = "L2M"
classification = "no (0)"

[[record]]
variantdescriptor = "K10M"
classification = "no (0)"

[[record]]
variantdescriptor = "R13M"
classification = "yes (1)"

[[record]]
variantdescriptor = "L12R"
classification = "yes (1)"

[[record]]
variantdescriptor = "N7A"
classification = "no (0)"

[[record]]
variantdescriptor = "K10E"
classification = "no (0)"

[[record]]
variantdescriptor = "V11L"
classification = "no (0)"

[[record]]
variantdescriptor = "N17A"
classification = "yes (1)"

[[record]]
variantdescriptor = "A23R"
classification = "yes (1)"

[[record]]
variantdescriptor = "G14W"
classification = "no (0)"

[[record]]
variantdescriptor = "A23N"
classification = "yes (1)"

[[record]]
variantdescriptor = "N7P"
classification = "yes (1)"

[[record]]
variantdescriptor = "C22A"
classification = "yes (1)"

[[record]]
variantdescriptor = "W18A"
classification = "yes (1)"

[[record]]
variantdescriptor = "L12P"
classification = "yes (1)"

[[record]]
variantdescriptor = "W18D"
classification = "no (0)"

[[record]]
variantdescriptor = "V19Q"
classification = "yes (1)"

[[record]]
variantdescriptor = "H15R"
classification = "no (0)"

[[record]]
variantdescriptor = "R13F"
classification = "no (0)"

[[record]]
variantdescriptor = "A23G"
classification = "no (0)"

[[record]]
variantdescriptor = "S21A"
classification = "yes (1)"

[[record]]
variantdescriptor = "N7Q"
classification = "no (0)"

[[record]]
variantdescriptor = "V11K"
classification = "no (0)"

[[record]]
variantdescriptor = "H15P"
classification = "yes (1)"

[[record]]
variantdescriptor = "N17K"
classification = "yes (1)"

[[record]]
variantdescriptor = "N17D"
classification = "no (0)"

[[record]]
variantdescriptor = "L2C"
classification = "yes (1)"

[[record]]
variantdescriptor = "A23F"
classification = "yes (1)"

[[record]]
variantdescriptor = "G6Q"
classification = "no (0)"

